Ref: PubChem BioAssay AID2060513

Tested on: 299254-011-R-J1-PDC complex spheroids viability
assay_comment: Anticancer human tumor 299254-011-R-J1-PDC patient-derived melanoma cell line growth inhibition [GQUAD]
experimental_conditions: second compound 3.16 µM; first compound 0.1 µM; stronger effect = lower value
Would you kindly list viability, T/C for each of these compounds?
Answers are plain numbers, in %.

Give me viability, T/C for each of these compounds, listed below.
1. O=C(NO)c1cnc(N2CCN(S(=O)(=O)c3ccc4ccccc4c3)CC2)nc1 + CN(C)c1ccc(Nc2c3ccc(NC(=O)CCN4CCCC4)cc3nc3cc(NC(=O)CCN4CCCC4)ccc23)cc1
2. O=C(c1cc(Cc2n[nH]c(=O)c3ccccc23)ccc1F)N1CCN(C(=O)C2CC2)CC1 + Cc1[nH]c2ccc(F)cc2c1-c1nc2c3cccnc3c3ncccc3c2[nH]1
3. CC1COCCN1c1cc(C2(O)CC3CCC(C2)O3)c2cnn(-c3ccn[nH]3)c2n1 (stereo not given) + Cc1[nH]c2ccc(F)cc2c1-c1nc2c3cccnc3c3ncccc3c2[nH]1
4. COc1cccc2c1C(=O)c1c(O)c3c(c(O)c1C2=O)CC(O)(C(=O)CO)CC3OC1CC(N)C(O)C(C)O1 (stereo not given) + Cc1[nH]c2ccc(F)cc2c1-c1nc2c3cccnc3c3ncccc3c2[nH]1
5. CCCS(=O)(=O)Nc1ccc(F)c(C(=O)c2c[nH]c3ncc(-c4ccc(Cl)cc4)cc23)c1F + Cc1[nH]c2ccc(F)cc2c1-c1nc2c3cccnc3c3ncccc3c2[nH]1

Outgoing:
1. 90.1
2. 95.7
3. 52.7
4. 91.7
5. 109

----------
Test system: 299254-011-R-J1-PDC complex spheroids viability
assay_comment: Anticancer human tumor 299254-011-R-J1-PDC cell line growth inhibition [GQUAD];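 further: spheroids exposed to the agents for seven days before readout; percent viability relative to DMSO vehicle control wells = 100%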
experimental_conditions: second compound 0.0316 µM; first compound 0.000999 µM; stronger effect = lower value
result_type: viability, T/C (%)
Numbers only, in %.

{"columns": ["compound", "viability, T/C / %"],
 "data": [
  ["CCc1c2c(nc3ccc(O)cc13)-c1cc3c(c(=O)n1C2)COC(=O)[C@]3(O)CC + Cc1[nH]c2ccc(F)cc2c1-c1nc2c3cccnc3c3ncccc3c2[nH]1", 106],
  ["Cn1ncnc1[C@H]1c2n[nH]c(=O)c3cc(F)cc(c23)N[C@@H]1c1ccc(F)cc1 + Cc1[nH]c2ccc(F)cc2c1-c1nc2c3cccnc3c3ncccc3c2[nH]1", 93.7],
  ["Cn1ncnc1[C@H]1c2n[nH]c(=O)c3cc(F)cc(c23)N[C@@H]1c1ccc(F)cc1 + CN(C)c1ccc(Nc2c3ccc(NC(=O)CCN4CCCC4)cc3nc3cc(NC(=O)CCN4CCCC4)ccc23)cc1", 108],
  ["CCc1c2c(nc3ccc(O)cc13)-c1cc3c(c(=O)n1C2)COC(=O)[C@]3(O)CC + Cc1cnc(CNC(=O)c2c(=O)c3ccc(N4CCCN(C)CC4)nc3n3c2sc2ccccc23)cn1", 102],
  ["CC[C@@]1(O)C(=O)OCc2c1cc1n(c2=O)Cc2cc3c(CN(C)C)c(O)ccc3nc2-1 + Cc1cnc(CNC(=O)c2c(=O)c3ccc(N4CCCN(C)CC4)nc3n3c2sc2ccccc23)cn1", 127],
  ["CCc1c2c(nc3ccc(O)cc13)-c1cc3c(c(=O)n1C2)COC(=O)[C@]3(O)CC + CN(C)c1ccc(Nc2c3ccc(NC(=O)CCN4CCCC4)cc3nc3cc(NC(=O)CCN4CCCC4)ccc23)cc1", 89.2],
  ["Cc1[nH]c2ccccc2c1CCNCc1ccc(/C=C/C(=O)NO)cc1 + Cc1cnc(CNC(=O)c2c(=O)c3ccc(N4CCCN(C)CC4)nc3n3c2sc2ccccc23)cn1", 92.3],
  ["CC[C@@]1(O)C(=O)OCc2c1cc1n(c2=O)Cc2cc3c(CN(C)C)c(O)ccc3nc2-1 + Cc1[nH]c2ccc(F)cc2c1-c1nc2c3cccnc3c3ncccc3c2[nH]1", 119]
]}

Below are some compounds; for each one, tell me its viability, T/C.
1. Cc1[nH]c2ccccc2c1CCNCc1ccc(/C=C/C(=O)NO)cc1 + CN(C)c1ccc(Nc2c3ccc(NC(=O)CCN4CCCC4)cc3nc3cc(NC(=O)CCN4CCCC4)ccc23)cc1
2. CC[C@@]1(O)C(=O)OCc2c1cc1n(c2=O)Cc2cc3c(CN(C)C)c(O)ccc3nc2-1 + CN(C)c1ccc(Nc2c3ccc(NC(=O)CCN4CCCC4)cc3nc3cc(NC(=O)CCN4CCCC4)ccc23)cc1
3. Cc1[nH]c2ccccc2c1CCNCc1ccc(/C=C/C(=O)NO)cc1 + Cc1[nH]c2ccc(F)cc2c1-c1nc2c3cccnc3c3ncccc3c2[nH]1
4. Cn1ncnc1[C@H]1c2n[nH]c(=O)c3cc(F)cc(c23)N[C@@H]1c1ccc(F)cc1 + Cc1cnc(CNC(=O)c2c(=O)c3ccc(N4CCCN(C)CC4)nc3n3c2sc2ccccc23)cn1

Outgoing:
1. 96.8
2. 99.2
3. 95.9
4. 94.1
